# tgt: E3 ubiquitin-protein ligase XIAP (Homo sapiens, UniProt P98170)
# Sequence (P98170 whole entry): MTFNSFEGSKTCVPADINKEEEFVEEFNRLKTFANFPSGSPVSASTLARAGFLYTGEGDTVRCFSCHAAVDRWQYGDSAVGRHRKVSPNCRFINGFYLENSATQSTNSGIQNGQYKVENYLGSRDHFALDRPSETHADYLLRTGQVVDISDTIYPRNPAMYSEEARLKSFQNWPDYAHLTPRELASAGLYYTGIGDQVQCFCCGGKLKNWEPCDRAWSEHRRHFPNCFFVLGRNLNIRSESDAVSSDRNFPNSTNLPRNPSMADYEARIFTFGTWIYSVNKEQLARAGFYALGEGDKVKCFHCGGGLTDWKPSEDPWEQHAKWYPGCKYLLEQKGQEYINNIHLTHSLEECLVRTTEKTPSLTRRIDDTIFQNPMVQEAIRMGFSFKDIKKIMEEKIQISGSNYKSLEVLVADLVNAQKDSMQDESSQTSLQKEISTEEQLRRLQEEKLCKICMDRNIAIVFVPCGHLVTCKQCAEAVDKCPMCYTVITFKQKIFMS
# run-description: Binding affinity for the recombinant XIAP BIR3 protein in displacing a fluorescently labeled Smac peptide
pKi: −log10 of the molar value.

{"molecule": "CCC[C@H](N)C(=O)NC1CC[C@H]2CC[C@@H](C(=O)NCc3ccccc3)N2C1=O (some centres not stated)", "tgt": "E3 ubiquitin-protein ligase XIAP (Homo sapiens, UniProt P98170)", "pKi": "< 4.00"}
{"molecule": "C[C@H](N)C(=O)NC1CC[C@H]2CC[C@@H](C(=O)Nc3ccccc3)N2C1=O (some centres not stated)", "tgt": "E3 ubiquitin-protein ligase XIAP (Homo sapiens, UniProt P98170)", "pKi": "< 4.00"}
